B1: glmS ribozyme (parent)
chain: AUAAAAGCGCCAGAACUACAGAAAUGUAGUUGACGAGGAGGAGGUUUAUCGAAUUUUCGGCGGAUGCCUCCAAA

Variants of: B1
Experiment: self-cleavage kobs at 40 uM GlcN6P; higher = faster cleavage; RNA array
Conditions: with glucosamine-6-phosphate
Variants at the floor of the assay were thinned out.
reported-metric: self-cleavage kobs at 40 uM GlcN6P

Task: Look up and report measured self-cleavage kobs at 40 uM GlcN6P for this entry: G13U U54G
Output: 3.24e-05 s⁻¹

Task: Look up and report measured self-cleavage kobs at 40 uM GlcN6P for this entry: U30G U54C
Output: 0.000148 s⁻¹

Task: Look up and report measured self-cleavage kobs at 40 uM GlcN6P for this entry: G9U G41U A42G A64U C71U
Output: < 1e-05 s⁻¹

Task: Look up and report measured self-cleavage kobs at 40 uM GlcN6P for this entry: G35C C50U C70G
Output: < 1e-05 s⁻¹

Task: Look up and report measured self-cleavage kobs at 40 uM GlcN6P for this entry: C8A C67G
Output: < 1e-05 s⁻¹

Task: Look up and report measured self-cleavage kobs at 40 uM GlcN6P for this entry: C16U C34A
Output: < 1e-05 s⁻¹

Task: Look up and report measured self-cleavage kobs at 40 uM GlcN6P for this entry: A14C C61G
Output: < 1e-05 s⁻¹

Task: Look up and report measured self-cleavage kobs at 40 uM GlcN6P for this entry: U55C C68A
Output: < 1e-05 s⁻¹

Task: Look up and report measured self-cleavage kobs at 40 uM GlcN6P for this entry: G60U C68G
Output: < 1e-05 s⁻¹

Task: Look up and report measured self-cleavage kobs at 40 uM GlcN6P for this entry: G32U U56C
Output: < 1e-05 s⁻¹

Task: Look up and report measured self-cleavage kobs at 40 uM GlcN6P for this entry: U45G U55C
Output: 0.000129 s⁻¹

Task: Look up and report measured self-cleavage kobs at 40 uM GlcN6P for this entry: U30A G60A
Output: < 1e-05 s⁻¹

Task: Look up and report measured self-cleavage kobs at 40 uM GlcN6P for this entry: A15G G35C C68A
Output: < 1e-05 s⁻¹

Task: Look up and report measured self-cleavage kobs at 40 uM GlcN6P for this entry: C16U U30G G32A U57A C61U
Output: < 1e-05 s⁻¹

Task: Look up and report measured self-cleavage kobs at 40 uM GlcN6P for this entry: C16U C71G
Output: 6.56e-05 s⁻¹

Task: Look up and report measured self-cleavage kobs at 40 uM GlcN6P for this entry: A6U G62A
Output: < 1e-05 s⁻¹

Task: Look up and report measured self-cleavage kobs at 40 uM GlcN6P for this entry: U47A U56A
Output: 0.00024 s⁻¹

Task: Look up and report measured self-cleavage kobs at 40 uM GlcN6P for this entry: A15G U46A
Output: 9.83e-05 s⁻¹

Task: Look up and report measured self-cleavage kobs at 40 uM GlcN6P for this entry: G32A G37A C50G C67U
Output: 6.41e-05 s⁻¹

Task: Look up and report measured self-cleavage kobs at 40 uM GlcN6P for this entry: A48G U54A C61U
Output: < 1e-05 s⁻¹

Task: Look up and report measured self-cleavage kobs at 40 uM GlcN6P for this entry: G9C U31G U54C
Output: < 1e-05 s⁻¹

Task: Look up and report measured self-cleavage kobs at 40 uM GlcN6P for this entry: A6G A15U C16G A53G C61G G63A
Output: < 1e-05 s⁻¹

Task: Look up and report measured self-cleavage kobs at 40 uM GlcN6P for this entry: A6U U65G
Output: < 1e-05 s⁻¹

Task: Look up and report measured self-cleavage kobs at 40 uM GlcN6P for this entry: C16U U49C
Output: < 1e-05 s⁻¹

Task: Look up and report measured self-cleavage kobs at 40 uM GlcN6P for this entry: G13A A33G
Output: < 1e-05 s⁻¹

Task: Look up and report measured self-cleavage kobs at 40 uM GlcN6P for this entry: C8A G41U
Output: < 1e-05 s⁻¹

Task: Look up and report measured self-cleavage kobs at 40 uM GlcN6P for this entry: U47G U69A
Output: 5.4e-05 s⁻¹

Task: Look up and report measured self-cleavage kobs at 40 uM GlcN6P for this entry: A36C C50A G62C
Output: < 1e-05 s⁻¹

Task: Look up and report measured self-cleavage kobs at 40 uM GlcN6P for this entry: G37A C61A
Output: < 1e-05 s⁻¹

Task: Look up and report measured self-cleavage kobs at 40 uM GlcN6P for this entry: G41C G63A A64G
Output: < 1e-05 s⁻¹

Task: Look up and report measured self-cleavage kobs at 40 uM GlcN6P for this entry: A15U U56G
Output: 0.000149 s⁻¹

Task: Look up and report measured self-cleavage kobs at 40 uM GlcN6P for this entry: C10U A36G C71G
Output: < 1e-05 s⁻¹

Task: Look up and report measured self-cleavage kobs at 40 uM GlcN6P for this entry: A53U G66A
Output: 0.000372 s⁻¹

Task: Look up and report measured self-cleavage kobs at 40 uM GlcN6P for this entry: G32U G59U C71G
Output: < 1e-05 s⁻¹

Task: Look up and report measured self-cleavage kobs at 40 uM GlcN6P for this entry: U47G C70U
Output: 0.000323 s⁻¹

Task: Look up and report measured self-cleavage kobs at 40 uM GlcN6P for this entry: G37U G41A
Output: < 1e-05 s⁻¹

Task: Look up and report measured self-cleavage kobs at 40 uM GlcN6P for this entry: G9U U31G
Output: < 1e-05 s⁻¹

Task: Look up and report measured self-cleavage kobs at 40 uM GlcN6P for this entry: G59A C71U
Output: < 1e-05 s⁻¹

Task: Look up and report measured self-cleavage kobs at 40 uM GlcN6P for this entry: U49C G66C
Output: < 1e-05 s⁻¹

Task: Look up and report measured self-cleavage kobs at 40 uM GlcN6P for this entry: A33G G40C C70U
Output: < 1e-05 s⁻¹
